# assayedTarget: MGL (Rattus norvegicus, UniProt Q8R431)
# Construct: one g rat brain was homogenized
# Sequence (Q8R431 whole entry): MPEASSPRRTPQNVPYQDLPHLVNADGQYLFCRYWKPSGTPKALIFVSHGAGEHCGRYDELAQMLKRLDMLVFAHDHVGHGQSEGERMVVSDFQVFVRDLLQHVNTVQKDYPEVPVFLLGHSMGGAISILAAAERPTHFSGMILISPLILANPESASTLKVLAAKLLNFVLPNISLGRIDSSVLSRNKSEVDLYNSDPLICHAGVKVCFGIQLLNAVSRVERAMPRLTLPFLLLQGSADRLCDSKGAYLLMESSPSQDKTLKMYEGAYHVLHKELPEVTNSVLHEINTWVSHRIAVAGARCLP
# protocolNotes: 2-AG Accumulation Assay (rat brain homogenate)
# Type: biochemical
# conditionContext: compound 10 μM, percent of vehicle 2-AG accumulation
Overview of recorded Rat Brain 2AG % VehCntrl (%) @10 μM for various compounds
# output: bare number, implied unit %

compound	Rat Brain 2AG % VehCntrl (%) @10 μM
O=C(c1cc2c(C(F)(F)F)cccc2s1)N1CC(N2CCN(C(=O)c3nccs3)CC2)C1 [Cpd 327]	2005
N#Cc1cccc(-c2ccc(C(=O)N3CC(N4CCN(C(=O)c5nccs5)CC4)C3)cc2)c1 [Cpd 161]	1280
O=C(c1nccs1)N1CCN(C2CN(C(=O)c3sc4cc(C(F)(F)F)ccc4c3Cl)C2)CC1 [Cpd 324]	1265
Cc1cc(-c2cccc(C(F)(F)F)c2)ccc1C(=O)N1CC(N2CCN(C(=O)c3nccs3)CC2)C1 [Cpd 239]	1353
CN(CC1CCCCC1)c1ccc(CCC(=O)N2CC(N3CCN(C(=O)c4nccs4)CC3)C2)cc1 [Cpd 291]	1019
O=C(c1ccc(-c2ccc(F)c(Cl)c2)cc1)N1CC(N2CCN(C(=O)c3nccs3)CC2)C1 [Cpd 178]	1192
O=C(c1ccc(-c2ccc3c(c2)OCO3)cc1)N1CC(N2CCN(C(=O)c3nccs3)CC2)C1 [Cpd 181]	1236
O=C(c1ccc(-c2cccc(C(F)(F)F)c2)cc1)N1CC(N2CCN(C(=O)c3nccs3)CC2)C1 [Cpd 237]	1182
O=C(c1ccc(SCc2cccc(Cl)c2Cl)cc1)N1CC(N2CCN(C(=O)c3nccs3)CC2)C1 [Cpd 413]	1693
CN(C)S(=O)(=O)Nc1cccc(-c2ccc(C(=O)N3CC(N4CCN(C(=O)c5ccccc5)CC4)C3)cc2)c1 [Cpd 205]	1172

Find the measured Rat Brain 2AG % VehCntrl (%) @10 μM of N#CC=Cc1cccc(-c2ccc(C(=O)N3CC(N4CCN(C(=O)c5nccs5)CC4)C3)cc2)c1 [Cpd 223] and report it.
1261

Find the measured Rat Brain 2AG % VehCntrl (%) @10 μM of O=C(c1ccc(-c2ccc3ccccc3c2)cc1)N1CC(N2CCN(C(=O)c3nccs3)CC2)C1 [Cpd 182] and report it.
1500

Find the measured Rat Brain 2AG % VehCntrl (%) @10 μM of O=C(c1ccc(-c2cccc(Cl)c2)cc1)N1CC(N2CCN(C(=O)c3nccs3)CC2)C1 [Cpd 162] and report it.
1099

Find the measured Rat Brain 2AG % VehCntrl (%) @10 μM of O=C(c1ccc(SCc2cccc(Cl)c2)cc1)N1CC(N2CCN(C(=O)c3nccs3)CC2)C1 [Cpd 412] and report it.
1271

Find the measured Rat Brain 2AG % VehCntrl (%) @10 μM of O=C(c1ccc(-c2ccc([N+](=O)[O-])cc2)cc1)N1CC(N2CCN(C(=O)c3nccs3)CC2)C1 [Cpd 215] and report it.
1091

Find the measured Rat Brain 2AG % VehCntrl (%) @10 μM of Cc1cccc(-c2ccc(C(=O)N3CC(N4CCN(C(=O)c5nccs5)CC4)C3)cc2)c1 [Cpd 176] and report it.
1124
